- assay_system: T1, recombinant human CD3 epsilon/delta heterodimer (human, UniProt P07766 23-126; P04234 22-105)
- T1 construct: Recombinant heterodimer used as analyte in Octet; also called hCD3 E/D; human CD3E/D
- T1 sequence (P07766 23-126, stated change not applied, chain 1 of 2): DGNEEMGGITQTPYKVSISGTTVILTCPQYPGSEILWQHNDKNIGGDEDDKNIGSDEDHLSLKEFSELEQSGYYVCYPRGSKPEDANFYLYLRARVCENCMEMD
- T1 sequence (P04234 22-105, stated change not applied, chain 2 of 2): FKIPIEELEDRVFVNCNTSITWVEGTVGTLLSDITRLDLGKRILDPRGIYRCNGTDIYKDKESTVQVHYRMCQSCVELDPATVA
- procedure_text: BLI (Octet), mAb 5 ug/mL on FAB2G sensor, hCD3 E/D 200-50 nM
Recorded log10(koff) by entry
recorded_metric: log10(koff) (log10 of the value in s⁻¹)

>  <binder>
ABL-CD3-79 (antibody, V domains shown, mAb purified from hybridoma; chimeric AlivaMab IgG (human VH, CH1 and upper hinge; mouse middle hinge, CH2, CH3; human light chain)) VH: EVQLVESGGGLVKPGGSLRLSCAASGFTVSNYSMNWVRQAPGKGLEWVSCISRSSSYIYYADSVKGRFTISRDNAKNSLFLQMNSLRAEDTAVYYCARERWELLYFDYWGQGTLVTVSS VL: QTVVTQEPSFSVSPGGTVTLTCGLSSGSVSTSYYPSWYQQTPGQAPRTLIYSTNTRSSGVPDRFSGSILGNKAALTITGAQADDESDYYCVLYMGSGIWVFGGGTKLTVL

>  <log10(koff)>
-1.33

$$$$
>  <binder>
ABL-CD3-83 (antibody, V domains shown, mAb purified from hybridoma; chimeric AlivaMab IgG (human VH, CH1 and upper hinge; mouse middle hinge, CH2, CH3; human light chain)) VH: EVQLVESGGGLVKPGGSLRLSCAASGFTFSSYSMNWVRQAPGKGLEWVSTISRSGGYIYDADSVKGRFTISRDNAKNSLYLQMNSLRAEDTAVYYCARDFNWTFDNWGQGTLVTVSS VL: NFMLTQPHSVSESPGKTVTISCTRSSGSIASNYVQWYQQRPGSSPTTVIYEDNQRPSGVPDRFSGSIDSSSNSASLTISGLKTEDEADYYCQSSDRSNVVFGGGTKLTVL

>  <log10(koff)>
-2.05

$$$$
>  <binder>
ABL-CD3-66 (antibody, V domains shown, mAb purified from hybridoma; chimeric AlivaMab IgG (human VH, CH1 and upper hinge; mouse middle hinge, CH2, CH3; human light chain)) VH: QVQLQESGPGLVKPSETLSLTCTVSGGSISSYYWSWIRQPAGKGLEWIGRIYASGSTYYNPSLKSRVTMSVDTSKNQFSLKLSSVTAADTAVYYCAREKRSRLYFDYWGQGTLVTVSS VL: NFMLTQPHSVSESPGKTVTISCTRSSGSIASNYVQWYQQRPGSSPTTVIYEDNQRPSGVPDRFSGSIDSSSNSASLTISGLKTEDEGDYYCQSYDRSNRVFGGGTKLTVL

>  <log10(koff)>
-1.58

$$$$
>  <binder>
ABL-CD3-72 (antibody, V domains shown, mAb purified from hybridoma; chimeric AlivaMab IgG (human VH, CH1 and upper hinge; mouse middle hinge, CH2, CH3; human light chain)) VH: EVQLVESGGGLVKPGGSLRLSCAASGFTFSTYIMNWVRQAPGKGLEWVSSISSSRSYIYYADSVKGRFTISRDNAKNSLYLQMNSLRAEDTAVYYCAREDRYRLFFDYWGQGTLVTVSS VL: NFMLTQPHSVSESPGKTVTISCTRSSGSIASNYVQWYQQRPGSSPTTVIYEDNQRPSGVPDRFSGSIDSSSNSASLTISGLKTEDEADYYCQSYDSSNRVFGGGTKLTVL

>  <log10(koff)>
-1.15

$$$$
>  <binder>
ABL-CD3-86 (antibody, V domains shown, mAb purified from hybridoma; chimeric AlivaMab IgG (human VH, CH1 and upper hinge; mouse middle hinge, CH2, CH3; human light chain)) VH: EVQLVESGGGLVKPGGSLRLSCAASGFTFSRYSMNWVRQAPGKGLEWVSTISRSSRYIYYGDSVKGRFTISRDNAKNSLLLQMNSLRAEDTAVYYCARDHNWSFDYWGKGILVTVSS VL: NFMLTQPLSVSESPGKTLTISCTRNSGSIASNYVQWYRQRPGSSPTTVIYEDKQRPSGVPDRFSGSIDSSSNSASLTISGLKAEDEADYYCQSCDSSNVVFGGGTTLTVL

>  <log10(koff)>
-3.15

$$$$
>  <binder>
ABL-CD3-76 (antibody, V domains shown, mAb purified from hybridoma; chimeric AlivaMab IgG (human VH, CH1 and upper hinge; mouse middle hinge, CH2, CH3; human light chain)) VH: EVQLVESGGGLVKPGGSLRLSCAASGFTFSNYYMNWVRQAPGKGLERVSSISSSSNYIYYADSVKGRFTISRDNAKNSLYLQMNSLRAEDTAVYYCARDRRELPLDYWGQGTVVTVSS VL: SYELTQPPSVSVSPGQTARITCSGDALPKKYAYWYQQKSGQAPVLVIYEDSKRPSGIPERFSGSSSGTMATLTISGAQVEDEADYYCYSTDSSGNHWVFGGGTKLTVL

>  <log10(koff)>
-1.90

$$$$
>  <binder>
ABL-CD3-71 (antibody, V domains shown, mAb purified from hybridoma; chimeric AlivaMab IgG (human VH, CH1 and upper hinge; mouse middle hinge, CH2, CH3; human light chain)) VH: QVQLQESGPGLVKPSETLSLTCTVSGGSINSYYWSWIRQPAGKGLEWIGRIYTSGSTNYNPSLKSRVTMSVDTSKKQFSLKLSSVTAADTAVYYCARERISRLYFDYWGQGILVTVSS VL: NFMLTQPHSVSESPGKTVTISCTRSSGSIASNYVQWYQQRPGSSPTTVIYEDNQRPSGVPDRFSGSIDSSSNSASLTISGLKTEDEADYYCQSYDRSNRVFGGGTKLTVL

>  <log10(koff)>
-1.99

$$$$
>  <binder>
ABL-CD3-77 (antibody, V domains shown, mAb purified from hybridoma; chimeric AlivaMab IgG (human VH, CH1 and upper hinge; mouse middle hinge, CH2, CH3; human light chain)) VH: EVQLVESGGGLVKPGGSLRLSCAASGFTFSSYSMNWVRQAPGKGLEWVSSISSSSSYIYYADSVKGRFTISRDNAKNSLYLQMNSLRAEDTAVYYCARDGELGIGTYFDYWGQGTLVTVSS VL: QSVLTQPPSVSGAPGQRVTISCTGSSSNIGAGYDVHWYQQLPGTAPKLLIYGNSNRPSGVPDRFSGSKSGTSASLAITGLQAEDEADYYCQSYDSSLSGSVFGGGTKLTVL

>  <log10(koff)>
-1.87

$$$$
>  <binder>
ABL-CD3-69 (antibody, V domains shown, mAb purified from hybridoma; chimeric AlivaMab IgG (human VH, CH1 and upper hinge; mouse middle hinge, CH2, CH3; human light chain)) VH: EVQLVESGGGLVKPGGSLRLSCAASGFTFSTYTMNWVRQAPGKGLEWVSTITSSSRYIYYADSVKGRFTISRDNAKNSLYLQMNSLRAEDTAVYYCARVTFDAFDIWGQGTMVTVSS VL: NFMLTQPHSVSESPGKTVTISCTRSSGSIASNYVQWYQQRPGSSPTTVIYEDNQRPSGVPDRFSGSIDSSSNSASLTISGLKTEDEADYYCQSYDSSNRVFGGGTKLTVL

>  <log10(koff)>
-3.07

$$$$
>  <binder>
ABL-CD3-84 (antibody, V domains shown, mAb purified from hybridoma; chimeric AlivaMab IgG (human VH, CH1 and upper hinge; mouse middle hinge, CH2, CH3; human light chain)) VH: EVQLVESGGGLVKPGGSLRLSCAASGFTFSNFIMNWVRQAPGKGLEWVSSISGSSNYIYYADSVKGRFTISGDNAKNSLYLQMNSLRAEDTAVYYCAREKWVLLFFDYWGQGTLVTVSS VL: NFMLTQPHSVSESPGKTVTISCTRSSGSIASNYVQWYQQRPGSSPTTMIYEDTQRPSGVPDRFSGSIDSSSNSASLTISGLKTEDEADYYCQSYDSSNRVFGGGTKLTVL

>  <log10(koff)>
-1.69

$$$$

Entry source: patent US20260167721A1
